Biological target: Monoglyceride lipase (Homo sapiens)
Sequence (Q99685 whole entry): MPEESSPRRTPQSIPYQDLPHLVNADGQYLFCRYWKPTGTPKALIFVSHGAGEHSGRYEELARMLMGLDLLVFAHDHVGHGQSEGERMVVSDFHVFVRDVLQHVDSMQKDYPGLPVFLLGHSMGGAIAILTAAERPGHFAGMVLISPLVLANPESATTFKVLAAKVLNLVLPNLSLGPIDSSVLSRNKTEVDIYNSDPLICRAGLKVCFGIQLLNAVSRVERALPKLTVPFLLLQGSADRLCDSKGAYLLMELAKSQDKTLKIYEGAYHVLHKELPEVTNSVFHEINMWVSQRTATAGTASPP
pIC50: −log10 of the molar value.
reported-metric: pIC50

The cases that follow already have their pIC50 on record.
| smiles-string | result |
| --- | --- |
| CCCCCCCCNC(=O)Oc1ccc(OC)c(-c2cncc(-c3cccs3)c2)c1 | 5.00 |
| CCCCCCCNC(=O)Oc1cccc(-c2cncc(C(=O)OC)c2)c1 | < 5.00 |

Respectfully, I request pIC50 for each entry included below.
1. O=Cc1cncc(-c2cccc(OC(=O)NC3CCCCC3)c2)c1
2. CCCCCCCCNC(=O)Oc1ccc(OC)c(-c2cncc(-c3ccc[nH]3)c2)c1
3. CCCCCNC(=O)Oc1cccc(-c2cncc(C(=O)OC)c2)c1
4. CCCCCCCCNC(=O)Oc1ccc(OC(F)(F)F)c(-c2cncc(-c3ncco3)c2)c1

["< 5.00", "< 5.00", "< 5.00", 5.00]

====

Exercise: state measured IC50 for each of the molecules provided.
Biological target: UniProtKB Q99685
Sequence (Q99685 whole entry): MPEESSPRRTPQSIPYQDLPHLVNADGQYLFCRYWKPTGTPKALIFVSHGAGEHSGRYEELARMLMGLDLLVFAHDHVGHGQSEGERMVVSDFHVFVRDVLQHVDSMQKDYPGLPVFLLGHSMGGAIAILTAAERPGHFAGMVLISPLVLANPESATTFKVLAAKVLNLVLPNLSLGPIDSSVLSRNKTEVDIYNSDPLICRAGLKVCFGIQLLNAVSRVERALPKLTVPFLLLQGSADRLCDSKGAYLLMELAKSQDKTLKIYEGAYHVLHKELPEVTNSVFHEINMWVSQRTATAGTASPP

Answered cases to consult:
| smiles-string | IC50 |
| --- | --- |
| CN(C)c1ccc(OC(=O)NC2CCCC2)cc1-c1cncc(-c2nnco2)c1 | > 10 µM |
| CCCCCCCCNC(=O)Oc1ccc(OC)c(-c2cncc(-c3nnco3)c2)c1 | > 10 µM |
| CCCCCCCCNC(=O)Oc1cccc(-c2cncc(-c3nnco3)c2)c1 | > 10 µM |

For the 2 molecules below, give their IC50 values.
1. CN(C(=O)Oc1cccc(-c2cncc(-c3nnco3)c2)c1)C1CCCCCC1
2. CCCCCCCCNC(=O)Oc1cccc(-c2cncc(C(F)(F)F)c2)c1

1: > 10 µM; 2: > 10 µM

====

Give IC50 for every item shown.
Molecular target: UniProt Q99685
Test: In Vitro Inhibition on FAAH and MAGL Activity Assay

| molecule | result |
| --- | --- |
| CCCCCCCCCCCCCCNC(=O)Oc1cccc(-c2cncc(-c3nnco3)c2)c1 [US20250129027, Example 132] | < 10 µM |
| CCCCCCCNC(=O)Oc1ccc(OC)c(-c2cncc(-c3nnco3)c2)c1 [US20250129027, Example 166] | > 10 µM |
| COc1ccc(OC(=O)NC2CCCCC2)cc1-c1cncc(-c2nncs2)c1 [US20250129027, Example 217] | > 10 µM |
| CCCCCCCCNC(=O)Oc1cccc(-c2cncc(C#N)c2)c1 [US20250129027, Example 27] | > 10 µM |
| CCCCCCCCNC(=O)Oc1cccc(-c2cncc(C(=O)OCC)c2)c1 [US20250129027, Example 3] | > 10 µM |
| CCCCCCCNC(=O)Oc1cccc(-c2cncc(C#N)c2)c1 [US20250129027, Example 26] | > 10 µM |
| CCCCCCCCCCCCNC(=O)Oc1cccc(-c2cncc(-c3nnco3)c2)c1 [US20250129027, Example 131] | < 10 µM |
| CCCCCCCCNC(=O)Oc1cccc(-c2cncc(-c3ccco3)c2)c1 [US20250129027, Example 47] | 10 µM |
| CCCCCCCNC(=O)Oc1ccc(O)c(-c2cncc(-c3nnco3)c2)c1 [US20250129027, Example 156] | > 20 µM |

Turning to the following molecule.
Observed IC50 on UniProt Q99685 for CCCCCCCCCCCCCCNC(=O)Oc1cccc(-c2cncc(C(=O)NO)c2)c1 [US20250129027, Example 24] , please.
> 10 µM

====

Kindly state pIC50 for each of the entries shown.
Molecular target: Monoglyceride lipase (Homo sapiens)
Sequence (Q99685 whole entry): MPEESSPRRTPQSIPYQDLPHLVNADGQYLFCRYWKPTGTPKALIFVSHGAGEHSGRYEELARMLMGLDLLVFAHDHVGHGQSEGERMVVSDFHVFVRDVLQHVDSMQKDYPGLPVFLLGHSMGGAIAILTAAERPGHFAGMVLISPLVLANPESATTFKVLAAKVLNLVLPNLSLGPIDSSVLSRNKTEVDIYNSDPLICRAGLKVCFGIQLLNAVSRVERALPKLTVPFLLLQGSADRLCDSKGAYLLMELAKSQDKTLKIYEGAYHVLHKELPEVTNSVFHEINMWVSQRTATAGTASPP
pIC50: −log10 of the molar value.

Please supply pIC50 for each of the following items, keeping them in order.
1. CCCCCNC(=O)Oc1cccc(-c2cncc(C(=O)OCC)c2)c1
2. CCCCCCCCNC(=O)Oc1cccc(-c2cncc(C(=O)OC)c2)c1
3. CCCCCCCCNC(=O)Oc1ccc(O)c(-c2cncc(-c3nnco3)c2)c1
4. CCCCCCNC(=O)Oc1cccc(-c2cncc(-c3nnco3)c2)c1

1: < 5.00; 2: < 6.00; 3: < 5.00; 4: < 4.30
